# assayTarget: T1, human Y2 receptor (human, UniProt P49146 1-381)
# T1 sequence (looked up): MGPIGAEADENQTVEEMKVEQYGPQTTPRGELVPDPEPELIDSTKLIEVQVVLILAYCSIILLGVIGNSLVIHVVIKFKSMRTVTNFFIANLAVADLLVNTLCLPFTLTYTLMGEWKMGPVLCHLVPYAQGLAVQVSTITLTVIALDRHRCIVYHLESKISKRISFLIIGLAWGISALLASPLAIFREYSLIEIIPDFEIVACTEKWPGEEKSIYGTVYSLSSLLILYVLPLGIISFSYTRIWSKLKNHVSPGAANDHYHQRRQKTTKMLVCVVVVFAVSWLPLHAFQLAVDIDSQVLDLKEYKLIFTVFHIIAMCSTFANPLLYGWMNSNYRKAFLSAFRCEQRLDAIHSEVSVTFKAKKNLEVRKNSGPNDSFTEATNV
# experimentNotes: cell-based or functional assay
Non-standard residues stand in square brackets, D forms with d. *: point of attachment. X10 = Tetrahydro‑2H‑pyran‑4‑yl‑carbamoyl, O=C(NC1CCOCC1)*; tBuAla = CC(C)(C)C[C@H](N)C(=O)O; Cha = N[C@@H](CC1CCCCC1)C(=O)O; Aib = CC(C)(N)C(=O)O
recordedMetric: GBA EC50 Ratio ([35S]GTPγS binding)

Q: # lookup: GBA EC50 Ratio ([35S]GTPγS binding) of X10-S[dP]RH[Cha][tBuAla]NK[Aib]TRQR[Cha]-NH2 (SMILES C[C@@H](O)[C@H](NC(=O)C(C)(C)NC(=O)[C@H](CCCCN)NC(=O)[C@H](CC(N)=O)NC(=O)[C@H](CC(C)(C)C)NC(=O)[C@H](CC1CCCCC1)NC(=O)[C@H](Cc1c[nH]cn1)NC(=O)[C@H](CCCNC(=N)N)NC(=O)[C@H]1CCCN1C(=O)[C@H](CO)NC(=O)NC1CCOCC1)C(=O)N[C@@H](CCCNC(=N)N)C(=O)N[C@@H](CCC(N)=O)C(=O)N[C@@H](CCCNC(=N)N)C(=O)N[C@@H](CC1CCCCC1)C(N)=O, also called compound No. 229) [Tetrahydro-2H-pyran-4-yl-carbamoyl-[D-Pro24, Cha27,36, Leu(Me)28, Lys30, Aib31]-PYY(23-36)]
Ans: 0.5 EC50 compound/EC50 PYY(3-36)
